System: trypsin
Experiment: in vitro
Format: in vitro ADME
Settings: pH 8.6
List of half-life at 0.1 mg/ml values.

COMPOUND | STUDY TARGET | half-life at 0.1 mg/ml
CC(C)(C)c1cc(C(C)(C)C)c2[nH]c(C(C)(C)C)c(C[C@H](NC(=O)[C@@H](N)CCCCN)C(=O)N[C@@H](CCCCN)C(=O)NCCc3ccccc3)c2c1 [Compound 4] | trypsin | > 24 h
CC(C)(C)c1cc(C(C)(C)C)c2[nH]c(C(C)(C)C)c(CC(NC(=O)C(N)CCCNC(=N)N)C(=O)NC(CCCNC(=N)N)C(=O)NCCc3ccccc3)c2c1 (stereo not shown) [Compound 2] | trypsin | > 24 h
N=C(N)NCCC[C@H](NC(=O)C(Cc1ccc(-c2ccc(-c3ccccc3)cc2)cc1)NC(=O)[C@@H](N)CCCNC(=N)N)C(=O)NCCc1ccccc1 (stereo partly shown) [Compound 5] | trypsin | > 24 h
N=C(N)NCCC[C@H](NC(=O)C(Cc1ccc(-c2cccc3ccccc23)cc1)NC(=O)[C@@H](N)CCCNC(=N)N)C(=O)NCCc1ccccc1 (stereo partly shown) [Compound 3] | trypsin | 20 h

----------
Test system: Staphylococcus aureus, strain ATCC 25923
Conditions: S. aureus ATCC 25923
Where a SMILES comes first, the peptide text is derived from it. The star is where a group is joined. NHPhenethyl = c1ccc(CCN*)cc1
OBSERVATION TYPE: MIC (µM)

COMPOUND | OP | MEASURED NUMBER
N=C(N)NCCCC(N)C(=O)NC(Cc1ccc(-c2ccc3ccccc3c2)cc1)C(=O)NC(CCCNC(=N)N)C(=O)NCCc1ccccc1 (stereo not shown) [Compound 1] | = | 4
CC(C)(C)c1cc(C(C)(C)C)c2[nH]c(C(C)(C)C)c(CC(NC(=O)C(N)CCCNC(=N)N)C(=O)NC(CCCNC(=N)N)C(=O)NCCc3ccccc3)c2c1 (stereo not shown) [Compound 2] | < | 3
N=C(N)NCCC[C@H](NC(=O)[C@H](Cc1c[nH]c2ccccc12)NC(=O)[C@@H](N)CCCNC(=N)N)C(=O)NCCc1ccccc1 [Compound 6, reference compound] (H-Arg-Trp-Arg-NHPhenethyl) | = | 145
N=C(N)NCCC[C@H](NC(=O)C(Cc1ccc(-c2ccc(-c3ccccc3)cc2)cc1)NC(=O)[C@@H](N)CCCNC(=N)N)C(=O)NCCc1ccccc1 (stereo partly shown) [Compound 5] | = | 5

----------
List of MRSA values.
Test system: Methicillin resistant Staphylococcus aureus (MRSA) strain ATCC 33591
Conditions: Table 5; strain ATCC 33591

COMPOUND | OP | MRSA / mg/L
CC(C)(C)c1cc(C(C)(C)C)c2[nH]c(C(C)(C)C)c(C[C@H](NC(=O)[C@@H](N)CCCNC(=N)N)C(=O)N[C@@H](CCCNC(=N)N)C(=O)NC3CCCC3)c2c1 [Compound 14] | > | 15
CC(C)CNC(=O)[C@H](CCCNC(=N)N)NC(=O)[C@H](Cc1c(C(C)(C)C)[nH]c2c(C(C)(C)C)cc(C(C)(C)C)cc12)NC(=O)[C@@H](N)CCCNC(=N)N [Compound 12] | = | 3
CCCNC(=O)[C@H](CCCNC(=N)N)NC(=O)[C@H](Cc1c(C(C)(C)C)[nH]c2c(C(C)(C)C)cc(C(C)(C)C)cc12)NC(=O)[C@@H](N)CCCNC(=N)N [Compound 10] | = | 3

----------
List of S. aureus values.
Test system: Staphylococcus aureus, strain ATCC 25923
Settings: Table 5; strain ATCC 25923

COMPOUND | OP | S. aureus, mg/L
CC(C)CNC(=O)[C@H](CCCNC(=N)N)NC(=O)[C@H](Cc1c(C(C)(C)C)[nH]c2c(C(C)(C)C)cc(C(C)(C)C)cc12)NC(=O)[C@@H](N)CCCNC(=N)N [Compound 12] | < | 2
CC(C)(C)c1cc(C(C)(C)C)c2[nH]c(C(C)(C)C)c(C[C@H](NC(=O)[C@@H](N)CCCNC(=N)N)C(=O)N[C@@H](CCCNC(=N)N)C(=O)NC3CCCC3)c2c1 [Compound 14] | < | 2
CCCNC(=O)[C@H](CCCNC(=N)N)NC(=O)[C@H](Cc1c(C(C)(C)C)[nH]c2c(C(C)(C)C)cc(C(C)(C)C)cc12)NC(=O)[C@@H](N)CCCNC(=N)N [Compound 10] | = | 2
CCCCNC(=O)[C@H](CCCNC(=N)N)NC(=O)[C@H](Cc1c(C(C)(C)C)[nH]c2c(C(C)(C)C)cc(C(C)(C)C)cc12)NC(=O)[C@@H](N)CCCNC(=N)N [Compound 9] | = | 2
CCCCCCCCCCCCCCCCNC(=O)[C@H](CCCNC(=N)N)NC(=O)[C@H](Cc1c(C(C)(C)C)[nH]c2c(C(C)(C)C)cc(C(C)(C)C)cc12)NC(=O)[C@@H](N)CCCNC(=N)N [Compound 11] | = | 5
CC(C)(C)c1cc(C(C)(C)C)c2[nH]c(C(C)(C)C)c(C[C@H](NC(=O)[C@@H](N)CCCNC(=N)N)C(=O)N[C@@H](CCCNC(=N)N)C(=O)NC3CCCCC3)c2c1 [Compound 13] | < | 2

----------
Tested on: S. pyogenes
Experiment: Antimicrobial assay, Table 5
Type: cell-based
List of S. pyogenes values.

CPD SMILES | READOUT UNITS | OP | S. pyogenes
CCCCNC(=O)[C@H](CCCNC(=N)N)NC(=O)[C@H](Cc1c(C(C)(C)C)[nH]c2c(C(C)(C)C)cc(C(C)(C)C)cc12)NC(=O)[C@@H](N)CCCNC(=N)N | mg/L | = | 2
CCCCCCCCCCCCCCCCNC(=O)[C@H](CCCNC(=N)N)NC(=O)[C@H](Cc1c(C(C)(C)C)[nH]c2c(C(C)(C)C)cc(C(C)(C)C)cc12)NC(=O)[C@@H](N)CCCNC(=N)N | mg/L | = | 6
CC(C)CNC(=O)[C@H](CCCNC(=N)N)NC(=O)[C@H](Cc1c(C(C)(C)C)[nH]c2c(C(C)(C)C)cc(C(C)(C)C)cc12)NC(=O)[C@@H](N)CCCNC(=N)N | mg/L | = | 2
CCCNC(=O)[C@H](CCCNC(=N)N)NC(=O)[C@H](Cc1c(C(C)(C)C)[nH]c2c(C(C)(C)C)cc(C(C)(C)C)cc12)NC(=O)[C@@H](N)CCCNC(=N)N | mg/L | = | 2
CC(C)(C)c1cc(C(C)(C)C)c2[nH]c(C(C)(C)C)c(C[C@H](NC(=O)[C@@H](N)CCCNC(=N)N)C(=O)N[C@@H](CCCNC(=N)N)C(=O)NC3CCCCC3)c2c1 | mg/L | < | 2
CC(C)(C)c1cc(C(C)(C)C)c2[nH]c(C(C)(C)C)c(C[C@H](NC(=O)[C@@H](N)CCCNC(=N)N)C(=O)N[C@@H](CCCNC(=N)N)C(=O)NC3CCCC3)c2c1 | mg/L | = | 2
